Experiment: chemical genetic growth profiling, strain panel (AID 1159580);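 note: tested at 20 µM; growth read once vehicle control cultures reached saturation at 30 °C; 1 = growth at the plate median or of vehicle wells; lower values mean less growth of the strain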
Conditions: S. cerevisiae deletion strains, growth OD, locus YPL055C, strain LGE1, hits give low values
Screen size: about 5,500 compounds; about 2,000 (36%) were called active. Another 18% or so got no clear call; they are omitted. This is one part of the list.
// values below are reported normalized growth
Format: numeric value only, no unit, no commentary.

Prompt line: Consider the compound shown here: Nc1nc(Sc2ccc(C(F)(F)F)cc2[N+](=O)[O-])n[nH]1 What is its recorded normalized growth?
Response line: 0.872

Prompt line: Find the recorded normalized growth belonging to O=[N+]([O-])c1cc(C(F)(F)F)ccc1Oc1cc(C(F)(F)F)cc(C(F)(F)F)c1 and report it.
Response line: 1.09

Prompt line: Any idea what its normalized growth is? The compound is O=C1CSC(c2cccnc2)N1c1ccc(Cl)cc1 (stereo not given)
Response line: 0.986

Prompt line: Quick one: normalized growth for CCCN(CCC)c1c([N+](=O)[O-])cc(C(F)(F)F)cc1[N+](=O)[O-] ?
Response line: 1.06

Prompt line: // normalized growth lookup, key: COc1ccc(Oc2ccc(C(F)(F)F)cc2[N+](=O)[O-])cc1
Response line: 0.898

----------
Experiment: chemical genetic growth profiling, strain panel (AID 1159580);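 note: tested at 20 µM; growth read once vehicle control cultures reached saturation at 30 °C; 1 = growth at the plate median or of vehicle wells; lower values mean less growth of the strain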
Conditions: S. cerevisiae deletion strains, growth OD, locus YMR205C, strain PFK2, hits give low values
The campaign covered roughly 5,500 compounds. About 2,000 (36%) were called active. About 18% were inconclusive and are not listed. Some of the results follow.
READOUT_TYPE: normalized growth
Write the value as a bare number.

MOLECULE	VALUE
COC1=CC23CCCN2CCc2cc4c(cc2C3C1O)OCO4 (stereo unspecified)	1.05
Cc1cc(O)c2c(c1)C(=O)c1cccc(O)c1C2=O	1.03
CC(C)c1cc2c(c(O)c1O)[C@@]1(C(=O)O)CCCC(C)(C)C1CC2 (stereo partly specified)	0.873
O=C(O)[C@H]1/C(=C/CO)O[C@@H]2CC(=O)N21	0.99
Cn1c(=O)[nH]c2nc[nH]c2c1=O	0.998

// switching to the query molecule
Prompt line: Which value of normalized growth has been reported for CC(=O)NC1C(O)OC(COS(=O)(=O)O)C(OC2OC(C(=O)O)C(OC3OC(CO)C(OC4OC(C(=O)O)C(O)C(O)C4OS(=O)(=O)O)C(OS(=O)(=O)O)C3NS(=O)(=O)O)C(O)C2OS(=O)(=O)O)C1O (stereo unspecified) in the records?
Response line: 0.982

----------
Test: chemical genetic growth profiling, strain panel (AID 1159580);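 note: tested at 20 µM; growth read once vehicle control cultures reached saturation at 30 °C; 1 = growth at the plate median or of vehicle wells; lower values mean less growth of the strain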
Settings: S. cerevisiae deletion strains, growth OD, locus YFL029C, strain CAK1, hits give low values
Screen size: about 5,500 compounds; about 2,000 (36%) were called active. Roughly 18% stayed inconclusive and do not appear here. The list shows a part of the results.
READOUT_TYPE: normalized growth
Output: the number by itself.

Study these solved cases before continuing.
> print(dat)
                                   compound       readout.type  value
1  CC(C)(C)c1ccc(-c2cc(NC(=O)c3ccc(Cl)cc3)n[nH]2)cc1  normalized growth   1.01
2  NNC(=O)c1oc2nc(-c3ccccc3)cc(-c3ccccc3)c2c1N  normalized growth  0.965
3  Cc1csc2c(N3CCN(C(=S)Nc4ccc(C(F)(F)F)cc4)CC3)ncnc12  normalized growth  0.991
4  C=CCC1C(=O)N(S(=O)(=O)c2ccc(Cl)cc2)N=C1CCC (stereo unspecified)  normalized growth  0.984
5        Cn1ncc(-c2nc(-c3ccc(Cl)cc3)cs2)c1N  normalized growth  0.942
6  Cc1cc(Sc2c([N+](=O)[O-])cc(C(F)(F)F)cc2[N+](=O)[O-])c(Cl)cc1Cl  normalized growth      1

Prompt line: Dear colleague, I am looking for the recorded normalized growth of the following compound: Cc1cc2nc3c(Cl)c(O)c4ccccc4c3nc2cc1C
Response line: 0.946

Prompt line: I'd like to know its normalized growth. The compound in question is N#CC(C(=O)Nc1cccc(C(F)(F)F)c1)C(=S)Nc1ccccc1Cl (stereo unspecified)
Response line: 1
